- target.or.test.system: SARS-CoV-2 3CL-protease (Severe acute respiratory syndrome coronavirus 2, UniProt P0DTD1)
measurement.type: IC50

// solved cases for IC50 follow
In plain terms, CC(C)C[C@@H](C(=O)N1C[C@]2(C[C@H]1C#N)C(=O)Nc1ccccc12)N(C)C(=O)Cc1ccccc1 [Example 226] has a documented IC50 of < 100 nM

The molecule listed as CN(C(=O)c1cc2c(F)cc(F)cc2[nH]1)[C@@H](COC(C)(C)C)C(=O)N1C[C@]2(C[C@H]1C#N)C(=O)Nc1ccccc12 [Example 371] shows IC50 equal to < 100 nM

Consider CC(C)C[C@@H](C(=O)N1C[C@]2(C[C@H]1C#N)C(=O)Nc1ccc(-c3ccc(F)cc3)cc12)N(C)C(=O)c1cc2c(F)cc(F)cc2[nH]1 [Example 511] . Its measured IC50 is < 100 nM

// recorded IC50 for CC(C)C[C@@H](C(=O)N1C[C@]2(C[C@H]1C#N)C(=O)Nc1ccccc12)N(C)C(=O)c1ccc2c(Br)cccc2n1 [Example 231] : 100 to 1000 nM

Summary for this molecule, CC(C)C[C@@H](C(=O)N1C[C@]2(C[C@H]1C#N)C(=O)Nc1ccccc12)N(C)C(=O)c1cc(OC2CC2)c2c(c1)=NC(C1CC1)N=2 (stereo partly drawn) [Example 307] : IC50 is 100 to 1000 nM

Shift focus to the following entry.
Consider Cc1ccc2cc(C(=O)N(C)[C@@H](CC(C)(C)F)C(=O)N3C[C@]4(C[C@H]3C#N)C(=O)Nc3ccc(Cl)cc34)[nH]c2n1 [Example 471] . Its measured IC50 is < 100 nM

----------
- target.or.test.system: SARS-CoV-2 3CL-protease (Severe acute respiratory syndrome coronavirus 2, UniProt P0DTD1)
- assay.comment: SARS-CoV-2 3C-Like (3CL) Protease Fluorescence Assay (FRET)
- Assay type: biochemical
- setup.conditions: SARS-CoV-2 3CL-protease 10 nM, 30 min preincubation at RT, substrate 40 μM
pIC50: −log10 of the molar value.
measurement.type: pIC50

// pIC50 value for CC(C)C[C@@H](C(=O)N1C[C@]2(C[C@H]1C#N)C(=O)Nc1ccccc12)N(C)C(=O)C[C@H](Cc1cc(F)c(F)cc1F)NC(=O)OC(C)(C)C [Example 291] : > 7.00

For this compound ( COc1ccc(C(=O)N(C)[C@@H](CC(C)C)C(=O)N2C[C@]3(C[C@H]2C#N)C(=O)Nc2ccccc23)cc1C(F)(F)F [Example 181] ), measured pIC50 is > 7.00

Reported pIC50 of CC(C)C[C@@H](C(=O)N1C[C@]2(C[C@H]1C#N)C(=O)Nc1ccccc12)N(C)C(=O)c1cc(-c2ccccc2)ccc1Cl [Example 262] : 6.00 to 7.00

GET /value?item= CC(C)C[C@@H](C(=O)N1C[C@]2(C[C@H]1C#N)C(=O)Nc1ccc(-n3cc(C4CC4)nn3)cc12)N(C)C(=O)c1cc2c(F)cc(F)cc2[nH]1 [Example 505] &field=pIC50 returns > 7.00

Form field pIC50, entry CC(C)C[C@@H](C(=O)N1C[C@]2(C[C@H]1C#N)C(=O)Nc1ccccc12)N(C)C(=O)c1ccc(OC2CC2)c(-c2cccnc2)c1 [Example 343] : > 7.00

Hey, can you go through the list below and give me pIC50 for every item?
1. C=C(C)c1ccc2c(c1)[C@@]1(C[C@@H](C#N)N(C(=O)[C@H](CC(C)C)N(C)C(=O)c3cc4c(F)cc(F)cc4[nH]3)C1)C(=O)N2 [Example 498]
2. CC(C)C[C@@H](C(=O)N1C[C@]2(C[C@H]1C#N)C(=O)Nc1ccccc12)N(C)C(=O)c1cc2ccccc2s1 [Example 207]
3. [2H]C([2H])([2H])N(C(=O)[C@H](O)c1ccc(F)cc1)[C@@H](CC1CC1)C(=O)N1C[C@]2(C[C@H]1C#N)C(=O)Nc1ccccc12 [Example 422]
4. [2H]C([2H])([2H])N(C(=O)Cc1ccncc1)[C@@H](CC(C)(C)F)C(=O)N1C[C@]2(C[C@H]1C#N)C(=O)Nc1ccc(Cl)cc12 [Example 474]
5. CC(C)C[C@@H](C(=O)N1C[C@]2(C[C@H]1C#N)C(=O)Nc1ccccc12)N(C)C(=O)c1ccc2c(F)cc(F)cc2n1 [Example 290]
6. CC(C)C[C@@H](C(=O)N1C[C@]2(C[C@H]1C#N)C(=O)Nc1ccccc12)N(C)C(=O)c1ccc2ccsc2c1 [Example 246]
7. CC(C)C[C@@H](C(=O)N1C[C@]2(C[C@H]1C#N)C(=O)Nc1ccccc12)N(C)C(=O)c1cccc(-c2ccc(C(F)(F)F)cc2)c1 [Example 263]
8. CC(C)(C)C[C@H](NC(=O)c1cnn(C(C)(C)C)c1)C(=O)N1C[C@]2(C[C@H]1C#N)C(=O)Nc1ccccc12 [Example 133]

result:
> 7.00
> 7.00
> 7.00
> 7.00
6.00 to 7.00
6.00 to 7.00
6.00 to 7.00
> 7.00

Dear colleague, could you please provide pIC50 for the compounds listed below?
1. CN(C(=O)c1cnn(-c2ccc(F)cc2)c1)[C@@H](CC1CC1)C(=O)N1C[C@]2(C[C@H]1C#N)C(=O)Nc1ccccc12 [Example 405]
2. CC[C@@H](C(=O)N1C[C@]2(C[C@H]1C#N)C(=O)Nc1ccccc12)N(C)C(=O)c1cc2c(F)cc(F)cc2[nH]1 [Example 385]
3. CC(C)C[C@@H](C(=O)N1C[C@]2(C[C@H]1C#N)C(=O)Nc1ccccc12)N(C)C(=O)C#Cc1ccccc1 [Example 248]
4. CC(C)C[C@@H](C(=O)N1C[C@]2(C[C@H]1C#N)C(=O)Nc1ccccc12)N(C)C(=O)c1ccc(Cl)c(Cl)c1 [Example 166]
5. CN(C(=O)c1cn(C(C)(C)C)nn1)[C@@H](CC1CC1)C(=O)N1C[C@]2(C[C@H]1C#N)C(=O)Nc1ccccc12 [Example 402]
6. CC(C)C[C@@H](C(=O)N1C[C@]2(C[C@H]1C#N)C(=O)Nc1ccccc12)N(C)C(=O)c1ccc2ccccc2c1 [Example 219]
7. [2H]C([2H])([2H])N(C(=O)C1(c2ccncc2)CC1)[C@@H](CC(C)(C)F)C(=O)N1C[C@]2(C[C@H]1C#N)C(=O)Nc1ccc(Cl)cc12 [Example 475]
8. CC(C)C[C@@H](C(=O)N1C[C@]2(C[C@H]1C#N)C(=O)Nc1ccccc12)N(C)C(=O)CCNC(=O)c1ccc(F)cc1F [Example 368]

result:
["> 7.00", "6.00 to 7.00", "6.00 to 7.00", "> 7.00", "> 7.00", "6.00 to 7.00", "> 7.00", "> 7.00"]
